System: 883617-216-R-J1-PDC tumor spheroids, viability;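 further: spheroids exposed to agents for 7 days before the viability read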
Protocol details: Anticancer human tumor 883617-216-R-J1-PDC patient-derived bladder carcinoma cell line growth inhibition [PI3K]; active means viability on the fitted dose curve at most 10% of control; inactive means the rest
Cond: second compound 3.16 µM; first compound 0.1 µM; spheroids with HUVEC and MSC
Source text: Combinatorial screen of targeted agents with the PI3K inhibitors inavolisib, alpelisib, duvelisib, and copanlisib in multi-cell type tumor spheroids A high-throughput screen of multi-cell type tumor spheroids was designed to identify active combinations of targeted small molecules and PI3K pathway inhibitors. […] Compounds. […] If the clinical Cmax for an agent had not been determined, the highest concentration tested was 10 microM. […]
Classes used: active, inactive

compound="Cn1ncc(Cl)c1-c1cc(C(=O)NC(CN)Cc2cccc(F)c2)sc1Cl (centres undefined) + CC(Nc1ncnc2nc[nH]c12)c1cc2cccc(Cl)c2c(=O)n1-c1ccccc1" class_name=inactive
compound="CC1(C)CCC(Nc2ncc(C(F)(F)F)c(-c3c[nH]c4c(P(C)(C)=O)c(C#N)ccc34)n2)CN1 (centres undefined) + CC(Nc1ncnc2nc[nH]c12)c1cc2cccc(Cl)c2c(=O)n1-c1ccccc1" class_name=inactive
compound="CC(Cn1ccc(-c2ccc(C#N)c(Cl)c2)n1)NC(=O)c1cc(C(C)O)[nH]n1 (centres undefined) + Cc1nc(NC(=O)N2CCCC2C(N)=O)sc1-c1ccnc(C(C)(C)C(F)(F)F)c1" class_name=inactive
compound="CC(C)n1nc(-c2ccc3oc(N)nc3c2)c2c(N)ncnc21 + Cc1nc(NC(=O)N2CCCC2C(N)=O)sc1-c1ccnc(C(C)(C)C(F)(F)F)c1" class_name=active
compound="C#Cc1c(F)ccc2cc(O)cc(-c3ncc4c(N5CC6CCC(C5)N6)nc(OCC56CCCN5CC(F)C6)nc4c3F)c12 (centres undefined) + Cc1nc(NC(=O)N2CCCC2C(N)=O)sc1-c1ccnc(C(C)(C)C(F)(F)F)c1" class_name=inactive
compound="C=CC(=O)N1CCN(c2nc(=O)n(-c3c(C)ccnc3C(C)C)c3nc(-c4c(O)cccc4F)c(F)cc23)C(C)C1 (centres undefined) + CC(Nc1ncnc2nc[nH]c12)c1cc2cccc(Cl)c2c(=O)n1-c1ccccc1" class_name=inactive
compound="CC(C)NCC(C(=O)N1CCN(c2ncnc3c2C(C)CC3O)CC1)c1ccc(Cl)cc1 (centres undefined) + Cc1nc(NC(=O)N2CCCC2C(N)=O)sc1-c1ccnc(C(C)(C)C(F)(F)F)c1" class_name=inactive
compound="C[C@@H](NC(=O)c1ncnc(N)c1Cl)c1ncc(C(=O)Nc2cc(C(F)(F)F)c(Cl)cn2)s1 + CC(Nc1ncnc2nc[nH]c12)c1cc2cccc(Cl)c2c(=O)n1-c1ccccc1" class_name=inactive
compound="CCN1CCN(Cc2ccc(Nc3ncc(F)c(-c4cc(F)c5nc(C)n(C(C)C)c5c4)n3)nc2)CC1 + CC(Nc1ncnc2nc[nH]c12)c1cc2cccc(Cl)c2c(=O)n1-c1ccccc1" class_name=inactive
